Parameter pIC50: see the listing below.
biological target: CYP2C9 (Homo sapiens); construct: tissue Corning (USA); host or cells: mixed human liver microsomes; assay: CYP450 inhibition in human liver microsomes, CYP2C9; type: in vitro ADME; conditions: human liver microsomes, probe diclofenac; read-out: IC50, subtype 2C9
Sequence (P11712 whole entry): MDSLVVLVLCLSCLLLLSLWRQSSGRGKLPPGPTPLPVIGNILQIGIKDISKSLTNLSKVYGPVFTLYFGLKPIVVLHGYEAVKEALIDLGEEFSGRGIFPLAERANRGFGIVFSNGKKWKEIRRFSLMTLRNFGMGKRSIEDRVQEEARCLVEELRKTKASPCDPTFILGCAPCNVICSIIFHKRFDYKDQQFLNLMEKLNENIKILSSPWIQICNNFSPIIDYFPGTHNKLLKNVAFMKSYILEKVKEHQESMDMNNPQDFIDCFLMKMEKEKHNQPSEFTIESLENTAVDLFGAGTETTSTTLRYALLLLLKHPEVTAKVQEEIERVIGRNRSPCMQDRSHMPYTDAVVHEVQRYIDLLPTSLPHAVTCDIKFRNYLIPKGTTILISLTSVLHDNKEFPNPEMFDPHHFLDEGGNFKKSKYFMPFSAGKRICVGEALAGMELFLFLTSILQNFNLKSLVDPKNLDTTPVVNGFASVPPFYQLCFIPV
pIC50: −log10 of the molar value.

Some entries whose results are on file:
Smiles: COc1cc2nn([C@H]3CC[C@](C)(O)CC3)cc2cc1NC(=O)c1cccc(C(F)(F)F)n1
pIC50: < 4.52
--
Smiles: COc1cc2nn([C@H]3CC[C@H](O)CC3)cc2cc1NC(=O)c1cccc(C(F)(F)F)n1
pIC50: < 4.52

Next compound, please.
May I ask what pIC50 has been recorded for CC(C)(O)c1cc2nn([C@H]3CC[C@](C)(O)CC3)cc2cc1NC(=O)c1cccc(C(C)(F)F)n1 ?
4.68

====

Item-by-item account of half-life at 1 μM
experiment: Stability in human liver microsomes; type: in vitro ADME; conditions: pH 7.4, ∞ = no obvious metabolism found during assay, read-out: Stability test in liver microsomes t1/2, Human

Smiles: COc1cc2nn([C@H]3CC[C@](C)(O)CC3)cc2cc1NC(=O)c1cccc(C(F)(F)F)n1
half-life at 1 μM: 469 min
//
Smiles: CC(C)(O)c1cc2nn([C@H]3CC[C@](C)(O)CC3)cc2cc1NC(=O)c1cccc(C(C)(F)F)n1
half-life at 1 μM: 3240 min
//
Smiles: COc1cc2nn([C@H]3CC[C@H](O)CC3)cc2cc1NC(=O)c1cccc(C(F)(F)F)n1
half-life at 1 μM: 770 min
//
Smiles: COc1cc2nn([C@H]3CC[C@@](C)(O)CC3)cc2cc1NC(=O)c1cccc(C(F)(F)F)n1
half-life at 1 μM: 25700 min

Read the next record carefully.
For CN(C)c1cc2nn([C@H]3C[C@H](C(C)(C)O)C3)cc2cc1NC(=O)c1cccc(C(F)(F)F)n1 , what is its reported half-life at 1 μM?
2140 min

====

target: hERG potassium ion channel (Homo sapiens, UniProt Q12809); construct: expressed in transfected cells; host or cells: HEK-293; assay: hERG whole-cell patch clamp in HEK-293 cells; assay type: cell-based; conditions: HEK-293 cells stably expressing hERG, pH 7.4, inhibition for hERG at 30 μM concentration
Sequence (Q12809 whole entry): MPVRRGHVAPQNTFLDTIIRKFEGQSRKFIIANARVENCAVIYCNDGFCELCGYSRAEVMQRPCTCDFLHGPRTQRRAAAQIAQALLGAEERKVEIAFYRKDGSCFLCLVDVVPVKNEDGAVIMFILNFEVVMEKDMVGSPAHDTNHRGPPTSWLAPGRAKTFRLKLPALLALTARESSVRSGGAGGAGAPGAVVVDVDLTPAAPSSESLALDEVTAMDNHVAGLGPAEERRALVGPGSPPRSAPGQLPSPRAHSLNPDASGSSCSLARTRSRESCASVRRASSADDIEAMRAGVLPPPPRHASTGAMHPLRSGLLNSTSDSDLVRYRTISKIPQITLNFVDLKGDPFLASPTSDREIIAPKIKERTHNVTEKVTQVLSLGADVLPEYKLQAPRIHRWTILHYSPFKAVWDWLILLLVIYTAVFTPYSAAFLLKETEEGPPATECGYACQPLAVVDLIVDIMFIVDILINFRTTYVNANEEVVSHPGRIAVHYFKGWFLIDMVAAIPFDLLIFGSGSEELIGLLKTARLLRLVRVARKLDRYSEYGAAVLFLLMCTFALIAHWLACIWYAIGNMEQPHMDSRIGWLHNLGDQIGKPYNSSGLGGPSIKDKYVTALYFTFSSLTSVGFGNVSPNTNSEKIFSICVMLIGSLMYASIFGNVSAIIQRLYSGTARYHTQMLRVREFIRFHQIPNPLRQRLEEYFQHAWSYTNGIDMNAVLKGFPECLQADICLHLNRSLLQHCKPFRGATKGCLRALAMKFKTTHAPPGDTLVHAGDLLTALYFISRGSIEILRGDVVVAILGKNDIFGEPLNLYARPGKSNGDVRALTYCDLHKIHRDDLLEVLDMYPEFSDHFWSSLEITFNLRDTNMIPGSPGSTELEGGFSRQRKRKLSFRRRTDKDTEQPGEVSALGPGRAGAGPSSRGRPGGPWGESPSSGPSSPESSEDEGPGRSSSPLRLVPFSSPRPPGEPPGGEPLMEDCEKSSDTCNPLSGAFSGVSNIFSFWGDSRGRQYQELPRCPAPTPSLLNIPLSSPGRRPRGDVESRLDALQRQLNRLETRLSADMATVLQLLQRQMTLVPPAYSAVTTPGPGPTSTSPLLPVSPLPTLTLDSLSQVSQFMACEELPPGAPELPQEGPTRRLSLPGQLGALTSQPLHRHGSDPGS
Assay Endpoint: inhibition at 5 min, 30 µM (%)
# unit: % | format: bare number

Smiles: COc1cc2nn([C@H]3CC[C@@](C)(O)CC3)cc2cc1NC(=O)c1cccc(C(F)(F)F)n1
inhibition at 5 min, 30 µM (%): 10.1
//
Smiles: COc1cc2nn([C@H]3CC[C@H](O)CC3)cc2cc1NC(=O)c1cccc(C(F)(F)F)n1
inhibition at 5 min, 30 µM (%): 11.6
//
Smiles: CN(C)c1cc2nn([C@H]3CC[C@H](O)CC3)cc2cc1NC(=O)c1cccc(C(F)(F)F)n1
inhibition at 5 min, 30 µM (%): 17.7

# ---- query molecule ----
GET /values?readout=inhibition at 5 min, 30 µM&system=hERG potassium ion channel (Homo sapiens, UniProt Q12809)&item= COc1cc2nn([C@H]3CC[C@](C)(O)CC3)cc2cc1NC(=O)c1cccc(C(F)(F)F)n1
12.8

====

assay: PK assay in rat (intravenous injection and oral gavage); assay type: in vivo; details: plasma, 1 mg/kg; male SD rat, intravenous injection, 1 mpk; read-out: Area under curve AUC0-t
Assay Endpoint: AUC(0-t)
Be sure to follow the number with its unit.

The following compounds have reported results that may help.
Smiles: COc1cc2nn([C@H]3CC[C@H](O)CC3)cc2cc1NC(=O)c1cccc(C(F)(F)F)n1
AUC(0-t): 5530 ng·h/mL
//
Smiles: CN(C)c1cc2nn([C@H]3C[C@H](C(C)(C)O)C3)cc2cc1NC(=O)c1cccc(C(F)(F)F)n1
AUC(0-t): 3390 ng·h/mL
//
Smiles: COc1cc2nn([C@H]3CC[C@](C)(O)CC3)cc2cc1NC(=O)c1cccc(C(F)(F)F)n1
AUC(0-t): 3150 ng·h/mL
//
Smiles: COc1cc2nn([C@H]3CC[C@@](C)(O)CC3)cc2cc1NC(=O)c1cccc(C(F)(F)F)n1
AUC(0-t): 4080 ng·h/mL

Find the recorded AUC(0-t) belonging to COc1cc2nn([C@H]3C[C@H](CO)C3)cc2cc1NC(=O)c1cccc(C(F)(F)F)n1 and report it.
790 ng·h/mL

====

system: cytokine TNF-α in LPS-induced human PBMCs; experiment: Inhibition of cytokine TNF-α in LPS-induced human PBMC (ELISA); format: cell-based; conditions: 0.1 μg/mL LPS for 4 h
Quick reference: IC50 of the listed items.
Express the result in nM but write the number alone.

A selection of reference data follows.
Smiles: CN(C)c1cc2nn([C@H]3C[C@H](C(C)(C)O)C3)cc2cc1NC(=O)c1cccc(C(F)(F)F)n1
Output Unit: nM
IC50: 165
--
Smiles: COc1cc2nn([C@H]3CC[C@](C)(O)CC3)cc2cc1NC(=O)c1cccc(C(F)(F)F)n1
Output Unit: nM
IC50: 71.8

Would you mind telling me what IC50 value was observed for CN(C)c1cc2nn([C@H]3CC[C@H](O)CC3)cc2cc1NC(=O)c1cccc(C(F)(F)F)n1 ?
191

====

Entries and their measured half-life follow.
test: PK assay in rat (intravenous injection and oral gavage); type: in vivo; details: plasma, 5 mg/kg; male SD rat, oral administration, 5 mpk, 15% solutol HS15 + 85% PBS; read-out: Half life t1/2 (converted)
Record the value in h, omitting the unit from your answer.

Here's what some known entries look like.
Compound: COc1cc2nn([C@H]3CC[C@H](O)CC3)cc2cc1NC(=O)c1cccc(C(F)(F)F)n1 [MY-004-127-1]
half-life / h: 8.84

Compound: COc1cc2nn([C@H]3CC[C@@](C)(O)CC3)cc2cc1NC(=O)c1cccc(C(F)(F)F)n1 [MY-004-126-2]
half-life / h: 24.8

Let us move to another entry and its half-life.
# query: half-life of entry COc1cc2nn([C@H]3CC[C@](C)(O)CC3)cc2cc1NC(=O)c1cccc(C(F)(F)F)n1 [MY-004-126-1]
15.2

====

experiment: PK assay in rat (intravenous injection and oral gavage); format: in vivo; settings: plasma, 1 mg/kg; male SD rat, intravenous injection, 1 mpk; read-out: Average retention time MRT
Here the recorded MRT is given for each entry.
Value expressed in h; do not type the unit.

For orientation, consider the following solved cases.
Smiles: COc1cc2nn([C@H]3CC[C@](C)(O)CC3)cc2cc1NC(=O)c1cccc(C(F)(F)F)n1
Assay Endpoint: MRT
Measured: 5.46
--
Smiles: COc1cc2nn([C@H]3CC[C@@](C)(O)CC3)cc2cc1NC(=O)c1cccc(C(F)(F)F)n1
Assay Endpoint: MRT
Measured: 8.81
--
Smiles: COc1cc2nn([C@H]3CC[C@H](O)CC3)cc2cc1NC(=O)c1cccc(C(F)(F)F)n1
Assay Endpoint: MRT
Measured: 7.54
--
Smiles: CN(C)c1cc2nn([C@H]3C[C@H](C(C)(C)O)C3)cc2cc1NC(=O)c1cccc(C(F)(F)F)n1
Assay Endpoint: MRT
Measured: 5.2

Continue with the next molecule.
Give the measured MRT of COc1cc2nn([C@H]3C[C@H](CO)C3)cc2cc1NC(=O)c1cccc(C(F)(F)F)n1 .
0.52

====

Measured half-life at 1 μM of individual entries
experiment: Stability in mouse liver microsomes; assay type: in vitro ADME; conditions: pH 7.4, ∞ = no obvious metabolism found during assay, read-out: Stability test in liver microsomes t1/2, Mouse
The answer is to be given in h; state only the numeric part.

State the recorded half-life at 1 μM for this entry: CN(C)c1cc2nn([C@H]3C[C@H](C(C)(C)O)C3)cc2cc1NC(=O)c1cccc(C(F)(F)F)n1
9.4

Now give it for COc1cc2nn([C@H]3CC[C@H](O)CC3)cc2cc1NC(=O)c1cccc(C(F)(F)F)n1 too.
768

====

target: CYP2D6 (Homo sapiens); construct: tissue Corning (USA); host or cells: mixed human liver microsomes; assay: CYP450 inhibition in human liver microsomes, CYP2D6; format: in vitro ADME; conditions: human liver microsomes, probe dextromethorphan; read-out: IC50, subtype 2D6
Sequence (P10635 whole entry): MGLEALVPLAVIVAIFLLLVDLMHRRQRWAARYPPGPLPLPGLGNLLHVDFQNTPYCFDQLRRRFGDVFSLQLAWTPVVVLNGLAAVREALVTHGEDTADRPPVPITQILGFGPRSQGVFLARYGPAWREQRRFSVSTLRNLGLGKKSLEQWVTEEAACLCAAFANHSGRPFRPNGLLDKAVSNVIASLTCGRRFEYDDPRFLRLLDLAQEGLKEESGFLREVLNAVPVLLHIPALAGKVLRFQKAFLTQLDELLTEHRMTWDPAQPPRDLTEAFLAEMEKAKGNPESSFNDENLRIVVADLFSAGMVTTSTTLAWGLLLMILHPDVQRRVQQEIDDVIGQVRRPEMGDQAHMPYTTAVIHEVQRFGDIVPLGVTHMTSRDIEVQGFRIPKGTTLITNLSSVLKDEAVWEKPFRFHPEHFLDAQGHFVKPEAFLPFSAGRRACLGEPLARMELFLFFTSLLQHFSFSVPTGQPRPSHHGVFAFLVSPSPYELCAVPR
Some molecules, each annotated with its measured IC50.

Known results for molecules:
Smiles: COc1cc2nn([C@H]3CC[C@](C)(O)CC3)cc2cc1NC(=O)c1cccc(C(F)(F)F)n1
IC50: > 30 µM
//
Smiles: CC(C)(O)c1cc2nn([C@H]3CC[C@](C)(O)CC3)cc2cc1NC(=O)c1cccc(C(C)(F)F)n1
IC50: > 30 µM

Quick one: IC50 of COc1cc2nn([C@H]3CC[C@H](O)CC3)cc2cc1NC(=O)c1cccc(C(F)(F)F)n1 ?
> 30 µM
